Experiment: Water sorption and solubility (ISO 4049)
Type: physicochemical
Settings: UDMA mixtures; one week in water
Items are presented alongside their recorded water sorption.
I only need the number, in μg/mm3, no unit after it.

C=CC(=O)N(C)CCO [HEM, N-(2-hydroxyethyl)-N-methylacrylamide] ... 203.5
C=CC(=O)N(C)C [DMAM, N.N-Dimethylacrylamide] ... 224.7
C=C(C)C(=O)OCCO [HEMA, 2-Hydroxyethyl methacrylate] ... 102.8
C=C(C)C(=O)NC(CC)CO (centres unmarked) [Monomer 2EM, N-(1-hydroxybutan-2-yl)methacrylamide] ... 102.7

Now for a further compound.
If you can, please state the reported water sorption value of C=C(C)C(=O)NC(C)(C)CO [Monomer 2dMM] .
102.7
